biological target: HLA-A*26:01; experiment: IEDB peptide-MHC binding, purified MHC/competitive/fluorescence; filed as Kd, often an IC50 or EC50 that approximates it; bounds were set here for any values at or beyond the usual limits of such assays; settings: source organism: Salmonella enterica subsp. enterica serovar Typhi
ATTRIBUTE_MEASURED: Kd (nM)
A number alone suffices; assume nM.

Provide Kd value for the following sequence: FAHDDRYLY
54.4

----------
molecular target: HLA-B*40:01; assay: IEDB peptide-MHC binding, purified MHC/competitive/fluorescence; filed as Kd, often an IC50 or EC50 that approximates it; bounds were set here for any values at or beyond the usual limits of such assays; conditions: source organism: Yersinia frederiksenii ATCC 33641
ATTRIBUTE_MEASURED: pKd
pKd is defined as minus the log10 of a concentration measured in mol/L.

Provide pKd value for the following sequence: MENMLDLLM
7.99
